# Assay Info: Cytotoxicity against mouse RAW264.7 cells assessed as cell survival at 20 uM after 4 hrs by MTT assay relative to control
# Format: cell-based
# Details: read-out: Survival
Test Readout: viability at 4 h, 20 µM

{"columns": ["Smiles Text", "Result"],
 "data": [
  ["C=C1C(=O)O[C@@H]2[C@@H]3[C@@]4(C=C[C@@]3(C)[C@]3(C4)C(=O)O[C@@H]4[C@H]5C(C)=CC[C@H]5[C@](C)(O)C[C@H](OC(C)=O)[C@H]43)[C@](C)(O)CC[C@@H]12", "> 80%"]
]}

----------
# Assay Info: Cytotoxicity against mouse RAW264.7 cells assessed as cell viability at 40 uM after 4 hrs by MTT assay relative to control
# Assay type: cell-based
# Details: read-out: Activity
Test Readout: viability at 4 h, 40 µM (%)

{"columns": ["Smiles Text", "Test Readout", "Measured Number"],
 "data": [
  ["C=C1C(=O)O[C@@H]2[C@@H]3[C@@]4(C=C[C@@]3(C)[C@]3(C4)C(=O)O[C@@H]4[C@H]5C(C)=CC[C@H]5[C@](C)(O)C[C@H](OC(C)=O)[C@H]43)[C@](C)(O)CC[C@@H]12", "viability at 4 h, 40 µM", 83]
]}

From: ChEMBL document CHEMBL3259611
